# targetDesc: Fyn (UniProt P06241)
# Sequence (P06241 whole entry, looked up): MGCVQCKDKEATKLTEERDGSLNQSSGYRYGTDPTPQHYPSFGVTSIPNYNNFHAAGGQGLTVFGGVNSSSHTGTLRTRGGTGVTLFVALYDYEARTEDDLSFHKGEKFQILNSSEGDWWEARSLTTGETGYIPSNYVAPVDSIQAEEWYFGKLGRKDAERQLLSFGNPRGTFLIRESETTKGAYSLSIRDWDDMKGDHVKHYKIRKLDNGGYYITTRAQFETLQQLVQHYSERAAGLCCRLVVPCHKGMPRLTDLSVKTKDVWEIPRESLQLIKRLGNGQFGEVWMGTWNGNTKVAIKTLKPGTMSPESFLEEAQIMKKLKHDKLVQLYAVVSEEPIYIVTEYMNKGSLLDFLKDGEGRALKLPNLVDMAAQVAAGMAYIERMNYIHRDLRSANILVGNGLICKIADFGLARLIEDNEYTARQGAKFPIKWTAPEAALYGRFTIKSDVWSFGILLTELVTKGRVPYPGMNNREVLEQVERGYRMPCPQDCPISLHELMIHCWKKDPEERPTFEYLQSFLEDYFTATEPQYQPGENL
# experimentDescription: phosphorylation enrichment, bacterial display (enrichment ratio); higher = better substrate or ligand; peptides without Tyr show the background;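 note: 11-residue human phosphosite peptides and single-mutation variants displayed on the E. coli surface, counted by deep sequencing, each peptide's frequency after selection divided by its frequency in the unselected input library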;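 note: frequency after pTyr selection over input frequency; kinase dosed for 20-30% of maximal phosphorylation in three min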
outcomeMeasure: phosphorylation enrichment

Per the reported Fyn (UniProt P06241) data, VKPENYRRLDI [VHL_Y175] has phosphorylation enrichment of 0.351

Per the reported Fyn (UniProt P06241) data, EHLNRYINDTF [TTLL10_Y446_S448N] has phosphorylation enrichment of 0.467

Per the reported Fyn (UniProt P06241) data, MSSLYYANALF [HOXB7_Y6_T9A] has phosphorylation enrichment of 4.93

Per the reported Fyn (UniProt P06241) data, EASGIYVKSII [PATJ_Y396] has phosphorylation enrichment of 0.429

Per the reported Fyn (UniProt P06241) data, DEDEEYEFMNR [ERBB3_Y1197_YF] has phosphorylation enrichment of 0.592

Per the reported Fyn (UniProt P06241) data, INNIDYFKKTT [FGFR2_Y656_YF] has phosphorylation enrichment of 0.409

Per the reported Fyn (UniProt P06241) data, NREGVYTVSAP [TGFBI_Y537_F540S] has phosphorylation enrichment of 10.9
